This section presents compounds with their documented residual activity values.
Molecular target: UniProt O15264
Sequence (O15264 whole entry, looked up): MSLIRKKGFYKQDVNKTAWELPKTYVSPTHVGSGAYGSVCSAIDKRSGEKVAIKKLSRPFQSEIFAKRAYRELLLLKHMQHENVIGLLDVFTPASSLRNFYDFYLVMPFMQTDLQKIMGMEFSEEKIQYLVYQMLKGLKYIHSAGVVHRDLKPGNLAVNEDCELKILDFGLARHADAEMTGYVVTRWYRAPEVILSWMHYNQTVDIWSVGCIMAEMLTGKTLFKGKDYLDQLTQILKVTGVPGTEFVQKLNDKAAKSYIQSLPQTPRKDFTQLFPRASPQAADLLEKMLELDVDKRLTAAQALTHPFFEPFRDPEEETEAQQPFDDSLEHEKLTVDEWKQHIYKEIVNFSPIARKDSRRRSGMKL
Experiment: radiometric filter-binding kinase assay
Conditions: compound 100.0 µM

{"Compound": "Cc1cc(N=Nc2cc(S(=O)(=O)O)c(C)cc2C)c(N)cc1O", "residual activity [%]": 109}
{"Compound": "COC(=O)/C=C/C(=O)OC", "residual activity [%]": 102}
{"Compound": "N#Cc1c(O)c2c(-c3ccc(-c4ccccc4O)cc3)csc2[nH]c1=O", "residual activity [%]": 124}
{"Compound": "Cc1ccc2c(c1)C(=O)[C@@]1(O)CCN(c3ccccc3)C1=N2", "residual activity [%]": 116}
